This listing pairs compounds with measured melting point.

>>> result("COc1ccc(C(CN)C(CN)c2ccc(Cl)cc2)cc1 (configuration not stated)")
"124 to 127 °C"
>>> result("COC(=O)c1ccccc1-n1c(CCl)nc2cc(Cl)ccc2c1=O")
"150 to 152 °C"
>>> result("CC(=O)[NH+]([O-])C[C@@H]1CN(c2ccc(N3CCN(S(=O)(=O)c4ccccc4C#N)CC3)c(F)c2)C(=O)O1 (some centres not stated)")
"190 to 192 °C"
>>> result("O=C(O)c1cccc(Nc2nccc(-c3cccnc3)n2)c1")
"291 to 295 °C"
>>> result("CCC(C(=O)N(C)C)n1nc(-c2ccccc2)c(C)c1C (configuration not stated)")
"119 to 121 °C"
>>> result("CC(C)(C)OC(=O)NC1Cc2cccc3[nH]c(=O)n(c23)C1 (configuration not stated)")
"235 to 236 °C"
>>> result("O=C(O)CN1C(=O)C(=Cc2c3ccccc3cc3ccccc23)SC1=S")
"277 to 279 °C"
>>> result("COc1ccc(N2CCN(Cc3n[nH]c4cc(Cl)ccc34)CC2)cc1")
"182 to 184 °C"

query: Suppose we examine the compound `COC(=O)C(=Cc1ccc2c(c1)OCO2)C(=O)c1cccc(OCc2ccccc2)c1` ; what melting point value has been reported?
result: 116 to 118 °C

query: Suppose we examine the compound `CC(=O)N1CC(=O)N/C(=C\c2ncoc2C(C)(C)C)C1=O` ; what melting point value has been reported?
result: 145 to 147 °C

query: Suppose we examine the compound `CCOC(=O)c1snc(-c2ccccc2)c1C(=O)OCC` ; what melting point value has been reported?
result: 70 to 71.5 °C

query: Suppose we examine the compound `C1=C(/C=C/c2cccs2)CCN(Cc2c[nH]c3ncccc23)C1` ; what melting point value has been reported?
result: 202 to 204 °C

query: Suppose we examine the compound `CCCCCN(CCC12CC3CC(CC(C3)C1)C2)C(=O)NCC(Cc1ccncc1)Cc1ccncc1` ; what melting point value has been reported?
result: 124 to 136 °C

query: Suppose we examine the compound `CCOC(=O)C(C)(C)Oc1ccc(CCc2cc(-c3ccc(C(F)(F)F)cc3)oc2C)cc1` ; what melting point value has been reported?
result: 87 to 88 °C
